# Experimental Target: 5HT2C receptors (Homo sapiens, UniProt P28335)
# Measurement Description: Human 5-HT2C functional high throughput screening assay in CHO-K1 cells (calcium flux)
# Format: cell-based
# Set-up: expressed in transfected cells; host or cells: CHO-K1 cells
# Condition Label: CHO-K1; 5-HT2C; maximum functional response as percentage relative to the effect of serotonin
Readout: Emax

stdin: # value lookup — system 5HT2C receptors (Homo sapiens, UniProt P28335), readout Emax, item FC(F)(F)Oc1ccc2c(c1)[C@H]1CNC[C@@H]1CCO2 (relative stereo)
stdout: 70%

stdin: # value lookup — system 5HT2C receptors (Homo sapiens, UniProt P28335), readout Emax, item O=C1NC[C@@H]2CNC[C@H]2c2ccc(OCCc3ccccc3)cc21 (relative stereo)
stdout: 120%

stdin: # value lookup — system 5HT2C receptors (Homo sapiens, UniProt P28335), readout Emax, item Fc1ccc(F)c2c1OCC[C@H]1CNC[C@H]21 (relative stereo)
stdout: 90%

stdin: # value lookup — system 5HT2C receptors (Homo sapiens, UniProt P28335), readout Emax, item CN1C[C@H]2CNC(=O)c3c(F)cccc3[C@@H]2C1 (relative stereo)
stdout: > 120%

stdin: # value lookup — system 5HT2C receptors (Homo sapiens, UniProt P28335), readout Emax, item "CN1C[C@@H]2CCOc3ccccc3[C@H]2C1"
stdout: 120%

stdin: # value lookup — system 5HT2C receptors (Homo sapiens, UniProt P28335), readout Emax, item "CN1C[C@@H]2CN(C)C(=O)c3cc(F)ccc3[C@H]2C1"
stdout: > 120%

stdin: # value lookup — system 5HT2C receptors (Homo sapiens, UniProt P28335), readout Emax, item "O=C1NC[C@H]2CNC[C@@H]2c2ccccc21"
stdout: 100%

stdin: # value lookup — system 5HT2C receptors (Homo sapiens, UniProt P28335), readout Emax, item "CN1C[C@@H]2CNC(=O)c3cc(Cl)ccc3[C@H]2C1"
stdout: > 120%

stdin: # value lookup — system 5HT2C receptors (Homo sapiens, UniProt P28335), readout Emax, item O=S1(=O)NC[C@@H]2CNC[C@H]2c2ccccc21 (relative stereo)
stdout: 100%

---

# Experimental Target: 5HT2C receptors (Homo sapiens, UniProt P28335)
# Sequence (P28335 33-458): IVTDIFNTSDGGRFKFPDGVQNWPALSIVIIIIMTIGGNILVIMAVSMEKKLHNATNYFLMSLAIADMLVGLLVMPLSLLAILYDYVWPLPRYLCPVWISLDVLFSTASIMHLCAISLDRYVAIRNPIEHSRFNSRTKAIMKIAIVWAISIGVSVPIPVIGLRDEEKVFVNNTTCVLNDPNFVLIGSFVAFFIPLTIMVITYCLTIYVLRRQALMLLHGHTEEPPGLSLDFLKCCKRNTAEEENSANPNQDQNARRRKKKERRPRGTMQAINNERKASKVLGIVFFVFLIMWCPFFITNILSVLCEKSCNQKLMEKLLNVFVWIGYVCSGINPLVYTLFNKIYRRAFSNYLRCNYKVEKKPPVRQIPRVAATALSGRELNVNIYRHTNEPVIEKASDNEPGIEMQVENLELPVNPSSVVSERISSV
# Measurement Description: Human 5-HT2C functional high throughput screening assay in CHO-K1 cells (calcium flux)
# Assay type: cell-based
# Parameters: expressed in transfected cells; host or cells: CHO-K1 cells
# Condition Label: 5-HT2C agonist activity; CHO-K1 cells; calcium flux; read-out: EC50
Readout: EC50 (nM)
Lab book: enter the figure in nM, no units written.

stdin: # value lookup — system 5HT2C receptors (Homo sapiens, UniProt P28335), readout EC50, item CS(=O)(=O)c1cccc(-c2ccc3c(c2)C(=O)NC[C@@H]2CNC[C@@H]32)c1 (relative stereo)
stdout: 0.8

stdin: # value lookup — system 5HT2C receptors (Homo sapiens, UniProt P28335), readout EC50, item CNC(=O)c1cccc(-c2ccc3c(c2)C(=O)NC[C@@H]2CN(C)C[C@@H]32)c1 (relative stereo)
stdout: 90

stdin: # value lookup — system 5HT2C receptors (Homo sapiens, UniProt P28335), readout EC50, item Nc1ccc2c(c1)C(=O)NC[C@@H]1CN(Cc3ccccc3)C[C@@H]21 (relative stereo)
stdout: 600

stdin: # value lookup — system 5HT2C receptors (Homo sapiens, UniProt P28335), readout EC50, item CC(=O)c1cccc(-c2ccc3c(c2)C(=O)N(C)C[C@@H]2CN(C)C[C@@H]32)c1 (relative stereo)
stdout: 40
